Tested on: PC-9
Test: Antiproliferative activity against human PC9 cells harboring EGFR exon-19 del mutant after 72 hrs by EZ-Cytox assay
Type: functional, cell-based
Settings: PC-9, 72 h
The entries below come with measured IC50 values attached.
Please give a number only; it is taken to be in nM.

Below, 8 compounds whose answers are already recorded.
smiles-str: C=CC(=O)Nc1cc2c(Nc3ccc(F)c(Cl)c3)ncnc2cc1OCc1cn(CCc2ccccc2)nn1
target-under-test: PC-9
unit-of-measure: nM
recorded-number: 3.6
--
smiles-str: C=CC(=O)Nc1cc2c(Nc3ccc(F)c(Cl)c3)ncnc2cc1OCc1cn(Cc2ccc(C)cc2)nn1
target-under-test: PC-9
unit-of-measure: nM
recorded-number: 1.3
--
smiles-str: C=CC(=O)Nc1cc2c(Nc3ccc(F)c(Cl)c3)ncnc2cc1OCc1cn(Cc2ccccc2)nn1
target-under-test: PC-9
unit-of-measure: nM
recorded-number: 1.2
--
smiles-str: C=CC(=O)Nc1cc2c(Nc3ccc(F)c(Cl)c3)ncnc2cc1OCc1cn(-c2ccccc2)nn1
target-under-test: PC-9
unit-of-measure: nM
recorded-number: 32
--
smiles-str: C=CC(=O)Nc1cc2c(Nc3ccc(F)c(Cl)c3)ncnc2cc1OCc1cn(CCCO)nn1
target-under-test: PC-9
unit-of-measure: nM
recorded-number: 1.5
--
smiles-str: C=CC(=O)Nc1cc2c(Nc3ccc(F)c(Cl)c3)ncnc2cc1OCc1cn(Cc2ccc(OC)cc2)nn1
target-under-test: PC-9
unit-of-measure: nM
recorded-number: 1.1
--
smiles-str: C=CC(=O)Nc1cc2c(Nc3ccc(F)c(Cl)c3)ncnc2cc1OCc1cn(CCCN2CCOCC2)nn1
target-under-test: PC-9
unit-of-measure: nM
recorded-number: 0.6
--
smiles-str: C=CC(=O)Nc1cc2c(Nc3ccc(F)c(Cl)c3)ncnc2cc1OCc1cn(Cc2ccccc2F)nn1
target-under-test: PC-9
unit-of-measure: nM
recorded-number: 1.2

I am curious: what IC50 value has been reported for C#CCOc1cc2ncnc(Nc3ccc(F)c(Cl)c3)c2cc1NC(=O)C=C ?
2.9

Consider next the compound CN(C)C/C=C/C(=O)Nc1cc2c(Nc3ccc(F)c(Cl)c3)ncnc2cc1O[C@H]1CCOC1 in the same way.
0.1

Consider next the compound C=CC(=O)Nc1cc2c(Nc3ccc(F)c(Cl)c3)ncnc2cc1OCc1cn(Cc2ccc(Cl)cc2)nn1 in the same way.
0.9

Consider next the compound C=CC(=O)Nc1cc2c(Nc3ccc(F)c(Cl)c3)ncnc2cc1OCc1cn(Cc2ccc(F)cc2)nn1 in the same way.
1

Consider next the compound C=CC(=O)Nc1cc2c(Nc3ccc(F)c(Cl)c3)ncnc2cc1OCc1cn(Cc2cccc(F)c2)nn1 in the same way.
0.9

---

The entries below come with measured pIC50 values attached.
Target: Epidermal growth factor receptor (Homo sapiens, UniProt P00533, L858R/T790M)
Sequence (P00533 25-1210 T790M/L858R limits assumed): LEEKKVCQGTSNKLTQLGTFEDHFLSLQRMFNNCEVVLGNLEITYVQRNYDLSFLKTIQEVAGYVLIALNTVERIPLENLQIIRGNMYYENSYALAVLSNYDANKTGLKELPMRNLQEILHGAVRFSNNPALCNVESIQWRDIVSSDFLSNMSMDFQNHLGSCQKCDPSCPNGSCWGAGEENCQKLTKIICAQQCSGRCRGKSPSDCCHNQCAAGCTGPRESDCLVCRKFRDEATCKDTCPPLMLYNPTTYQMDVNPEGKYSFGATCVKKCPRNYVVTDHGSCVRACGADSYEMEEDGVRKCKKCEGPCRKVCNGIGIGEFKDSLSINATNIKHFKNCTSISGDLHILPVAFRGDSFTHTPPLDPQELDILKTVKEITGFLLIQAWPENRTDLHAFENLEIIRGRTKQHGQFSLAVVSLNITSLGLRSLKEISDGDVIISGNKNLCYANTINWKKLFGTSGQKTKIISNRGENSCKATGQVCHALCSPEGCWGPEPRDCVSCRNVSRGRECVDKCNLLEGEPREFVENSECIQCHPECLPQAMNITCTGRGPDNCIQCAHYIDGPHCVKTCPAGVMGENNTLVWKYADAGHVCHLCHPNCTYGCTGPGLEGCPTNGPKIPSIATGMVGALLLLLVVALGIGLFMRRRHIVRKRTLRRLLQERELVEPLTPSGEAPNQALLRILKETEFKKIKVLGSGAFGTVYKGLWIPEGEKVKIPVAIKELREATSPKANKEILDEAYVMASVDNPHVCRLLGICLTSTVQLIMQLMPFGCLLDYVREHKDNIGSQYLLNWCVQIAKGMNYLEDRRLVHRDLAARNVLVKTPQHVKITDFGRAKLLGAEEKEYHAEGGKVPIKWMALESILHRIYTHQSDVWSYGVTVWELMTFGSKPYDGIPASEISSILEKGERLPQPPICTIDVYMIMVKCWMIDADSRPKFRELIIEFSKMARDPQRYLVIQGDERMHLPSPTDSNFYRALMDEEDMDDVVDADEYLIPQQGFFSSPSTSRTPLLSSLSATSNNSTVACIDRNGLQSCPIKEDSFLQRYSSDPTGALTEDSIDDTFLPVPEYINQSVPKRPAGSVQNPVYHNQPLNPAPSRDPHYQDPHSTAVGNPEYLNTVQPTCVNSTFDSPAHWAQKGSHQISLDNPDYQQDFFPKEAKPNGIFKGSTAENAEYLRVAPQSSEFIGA
Experiment: biochemical
# pIC50 is unitless: minus log10 of the molar concentration; print number only

smiles-str: C=CC(=O)Nc1cc2c(Nc3ccc(F)c(Cl)c3)ncnc2cc1OCc1cn(Cc2ccccc2F)nn1
target-under-test: Epidermal growth factor receptor (Homo sapiens, UniProt P00533, L858R/T790M)
readout-name: pIC50
recorded-number: 7.92
//
smiles-str: C=CC(=O)Nc1cc2c(Nc3ccc(F)c(Cl)c3)ncnc2cc1OCc1cn(CCCN2CCOCC2)nn1
target-under-test: Epidermal growth factor receptor (Homo sapiens, UniProt P00533, L858R/T790M)
readout-name: pIC50
recorded-number: 8.40
//
smiles-str: C=CC(=O)Nc1cc2c(Nc3ccc(F)c(Cl)c3)ncnc2cc1OCc1cn(Cc2ccc(Cl)cc2)nn1
target-under-test: Epidermal growth factor receptor (Homo sapiens, UniProt P00533, L858R/T790M)
readout-name: pIC50
recorded-number: 7.92

I am curious: what pIC50 value has been reported for C=CC(=O)Nc1cc2c(Nc3ccc(F)c(Cl)c3)ncnc2cc1OCc1cn(Cc2ccc(OC)cc2)nn1 ?
8.30
